# SYSTEM: PKM2 (Homo sapiens, UniProt P14618)
# Sequence (P14618 whole entry): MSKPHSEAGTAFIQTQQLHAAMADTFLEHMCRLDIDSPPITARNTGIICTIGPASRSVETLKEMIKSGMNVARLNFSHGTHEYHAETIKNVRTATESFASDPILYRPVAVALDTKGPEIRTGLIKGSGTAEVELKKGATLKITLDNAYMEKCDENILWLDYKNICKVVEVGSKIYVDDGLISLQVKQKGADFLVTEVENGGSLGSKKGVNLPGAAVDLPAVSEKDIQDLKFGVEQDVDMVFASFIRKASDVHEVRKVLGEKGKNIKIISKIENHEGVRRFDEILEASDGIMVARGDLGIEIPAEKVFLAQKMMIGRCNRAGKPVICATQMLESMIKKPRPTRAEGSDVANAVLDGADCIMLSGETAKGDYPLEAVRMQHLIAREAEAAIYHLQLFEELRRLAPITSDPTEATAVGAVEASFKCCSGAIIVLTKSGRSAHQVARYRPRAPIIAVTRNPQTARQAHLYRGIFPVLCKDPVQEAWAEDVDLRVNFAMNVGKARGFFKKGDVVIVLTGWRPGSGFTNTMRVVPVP
# ASSAY_PROCEDURE: PKM2 Assay
# Type: biochemical
# CONDITIONS: activation of PKM2 enzyme, LDH-coupled, absorbance at 340 nm; read-out: PKM2_AC50
VALUE_KIND: AC50

# annotated cases, reported AC50 shown
{"columns": ["COMPOUND", "AC50"],
 "data": [
  ["O=S(=O)(NCc1cccnc1)c1cccn1-c1ncc(C(F)(F)F)cc1Cl", "1 to 10 µM"],
  ["O=S(=O)(Nc1ccc(F)cc1)c1cccn1-c1ncccc1Cl", "1 to 10 µM"],
  ["Cc1ccc(NS(=O)(=O)c2cccn2-c2ncc(C(F)(F)F)cc2Cl)cc1C", "< 0.1 µM"],
  ["Cc1cc(NS(=O)(=O)c2cncn2-c2nccs2)ccc1F", "0.1 to 0.5 µM"]
]}

Consider the record given below.
Form: compound = COc1cc(NS(=O)(=O)c2cncn2-c2ncc(C(F)(F)F)cc2Cl)cc(C(F)(F)F)c1 [drawing 122] ; AC50 = 1 to 10 µM

====

Recorded AC50 for the following compounds
# SYSTEM: UniProtKB P14618
# ASSAY_PROCEDURE: PKM2 Assay
# Assay type: biochemical
# CONDITIONS: activation of PKM2 enzyme, LDH-coupled, absorbance at 340 nm; read-out: PKM2_AC50

# annotated cases, reported AC50 shown
{"columns": ["SMILES_INPUT", "AC50"],
 "data": [
  ["O=S(=O)(Nc1ccc(F)c(Cl)c1)c1cccn1-c1ncccc1Cl", "100 to 500 nM"],
  ["O=S(=O)(NCc1ccc(Cl)cc1)c1cccn1-c1ncc(C(F)(F)F)cc1Cl", "> 10000 nM"]
]}

Consider the record given below.
The value of AC50 recorded for `O=S(=O)(Nc1ccccc1)c1cccn1-c1ncc(C(F)(F)F)cc1Cl` when tested on UniProtKB P14618 reads < 100 nM
